- Tested on: HCC1569;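 further: TDF is a line of transformed human dermal fibroblasts of mesenchymal origin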
- method.description: H1.0 immunofluorescence intensity relative to DMSO (% of DMSO); higher = stronger H1.0 induction, active = 140 or more
- protocol.conditions: concentration: 10 µM; 24 h
# label = 1 (yes) if H1.0 immunofluorescence intensity >= 100 else 0 (no)

[[record]]
compound = "NC(=O)c1ccc(-c2nc(-c3ccc4c(c3)OCCO4)c(-c3ccccn3)[nH]2)cc1"
assayed_system = "HCC1569"
answer_label = "1 (yes)"


Req: Answer whether H1.0 immunofluorescence intensity of CS(=O)(=O)c1ccc(-c2cc(Br)sc2-c2ccc(F)cc2)cc1 is greater than or equal to 100.
Resp: 0 (no)

Req: Answer whether H1.0 immunofluorescence intensity of CC(Cc1ccc(O)c(O)c1)(NN)C(=O)O (stereo not drawn) [S-(-)-Carbidopa] is greater than or equal to 100.
Resp: 0 (no)

Req: Answer whether H1.0 immunofluorescence intensity of CC(=O)OC(C)C[N+](C)(C)C.[Cl-] (stereo not drawn) [Acetyl-beta-methylcholine chloride] is greater than or equal to 100.
Resp: 0 (no)
